Listed here are binders together with their documented % Blocking.
# measurement.target: T1, human chemokine (C-C motif) receptor 8 (CCR8) (human, UniProt P51685 1-355)
# T1 construct: On human peripheral blood lymphocytes / PBMC (native) or on human CCR8 GFP-transfected Ba/F3 cells; also called hCCR8; human CCR8
# T1 sequence (P51685 whole entry): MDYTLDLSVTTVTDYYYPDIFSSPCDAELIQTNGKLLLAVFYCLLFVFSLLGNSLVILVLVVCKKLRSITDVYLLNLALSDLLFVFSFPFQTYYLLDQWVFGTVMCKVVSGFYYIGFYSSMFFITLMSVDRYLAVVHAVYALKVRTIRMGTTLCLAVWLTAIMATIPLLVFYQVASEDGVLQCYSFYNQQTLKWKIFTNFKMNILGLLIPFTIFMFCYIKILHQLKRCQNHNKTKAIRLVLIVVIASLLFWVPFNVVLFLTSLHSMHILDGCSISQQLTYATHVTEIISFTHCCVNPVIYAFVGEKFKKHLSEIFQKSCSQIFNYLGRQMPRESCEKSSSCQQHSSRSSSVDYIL
# test.summary: flow cytometry blocking, PBMC CCR8+ CD4+ cells; competitor PE-AB14 (its MFI is read)
# number only, unit % dropped from output

AB15 (antibody, V domains shown, Hybridoma monoclonal; also called antibody 15; clone 15) VH: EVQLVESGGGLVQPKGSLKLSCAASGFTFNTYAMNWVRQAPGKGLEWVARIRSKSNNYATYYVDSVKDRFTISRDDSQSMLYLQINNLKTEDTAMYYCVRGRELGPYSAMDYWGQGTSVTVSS VL: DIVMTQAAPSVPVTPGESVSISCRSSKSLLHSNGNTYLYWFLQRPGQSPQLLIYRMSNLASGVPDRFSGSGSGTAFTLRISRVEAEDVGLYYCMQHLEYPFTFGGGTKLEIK    38.4

Attention now turns to another entry.
Please fill in: % Blocking reported for AB1 (antibody, V domains shown, Hybridoma monoclonal (mice or rats immunised); Used purified and PE-conjugated; also called antibody 1; clone 1) VH: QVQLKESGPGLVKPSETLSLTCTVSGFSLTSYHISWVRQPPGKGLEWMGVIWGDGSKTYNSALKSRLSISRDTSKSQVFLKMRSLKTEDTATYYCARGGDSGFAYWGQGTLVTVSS VL: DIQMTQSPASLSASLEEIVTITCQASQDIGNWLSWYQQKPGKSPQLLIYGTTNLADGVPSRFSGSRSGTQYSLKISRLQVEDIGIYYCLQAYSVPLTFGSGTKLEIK = 6.44
